Percent activation (%) Replicate 2 values by entry
target: Recombinant, full-length human HDAC1 (Homo sapiens, UniProt Q13547); construct: FLAG (C); purchased BPS Biosciences (San Diego, Calif.); host or cells: insect cells (Sf9); experiment: Primary HDAC1 high-throughput screen, microfluidics-based deacetylase assay, single concentration; type: biochemical; settings: high-throughput screening, 10 μM, 6 h
Sequence (Q13547 whole entry): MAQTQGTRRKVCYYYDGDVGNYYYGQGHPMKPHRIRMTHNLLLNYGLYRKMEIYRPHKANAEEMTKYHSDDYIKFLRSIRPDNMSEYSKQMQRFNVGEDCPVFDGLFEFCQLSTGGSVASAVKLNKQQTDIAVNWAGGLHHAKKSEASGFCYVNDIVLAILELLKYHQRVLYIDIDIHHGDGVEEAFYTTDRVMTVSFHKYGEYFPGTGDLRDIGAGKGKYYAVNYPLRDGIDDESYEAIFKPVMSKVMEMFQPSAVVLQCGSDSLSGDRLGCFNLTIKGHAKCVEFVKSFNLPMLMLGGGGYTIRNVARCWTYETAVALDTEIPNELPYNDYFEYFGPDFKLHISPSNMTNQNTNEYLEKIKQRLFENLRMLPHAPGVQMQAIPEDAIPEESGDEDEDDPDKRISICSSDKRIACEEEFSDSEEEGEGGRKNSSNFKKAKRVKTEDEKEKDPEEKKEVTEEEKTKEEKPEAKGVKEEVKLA
Enter your answer as a number in %; do not include the unit.

Past entries and their recorded results:
| Compound | Percent activation (%) Replicate 2 |
| --- | --- |
| CCC(=O)C1(Sc2nc3ccccc3[nH]2)CC(C)(C)OC1=O (centres unmarked) | 22.2 |
| Cc1ccc(C(=O)NC(=S)Nc2ccc(-c3ccc(CO)o3)cc2)cc1 | 138.4 |
| COc1ccc(CNc2cc(C)ccc2C)c(OC)c1 | 17.9 |
| Cc1cccc2c1[nH]c1nc(N/N=C/c3ccc(O)c(O)c3)nnc12 | 24.9 |

// below: Percent activation (%) Replicate 2 requested for another compound
Input "O=C(NC(=S)Nc1ccc(-c2ccc(CO)o2)cc1)c1cccs1" . Output Percent activation (%) Replicate 2: 56.6

* * *

target: Recombinant, full-length human HDAC1 (Homo sapiens, UniProt Q13547); construct: FLAG (C); purchased BPS Biosciences (San Diego, Calif.); host or cells: insect cells (Sf9); test: Primary HDAC1 high-throughput screen, microfluidics-based deacetylase assay, single concentration; format: biochemical; details: high-throughput screening, 10 μM, 6 h
Rule: 1 (yes) for Percent activation (%) Replicate 1 not less than 50%, 0 (no) for anything less.

| Compound | Label Class |
| --- | --- |
| Cc1cccc2c1[nH]c1nc(N/N=C/c3ccc(O)c(O)c3)nnc12 | 0 (no) |
| COc1ccc(CNc2cc(C)ccc2C)c(OC)c1 | 0 (no) |
| CCC(=O)C1(Sc2nc3ccccc3[nH]2)CC(C)(C)OC1=O (centres unmarked) | 0 (no) |
| O=C(NC(=S)Nc1ccc(-c2ccc(CO)o2)cc1)c1cccs1 | 1 (yes) |

Exam item: Record "Cc1ccc(C(=O)NC(=S)Nc2ccc(-c3ccc(CO)o3)cc2)cc1" ; criterion: Percent activation (%) Replicate 1 no lower than 50%. Met?
Marked response: 1 (yes)

* * *

molecular target: Recombinant, full-length human HDAC1 (Homo sapiens, UniProt Q13547); construct: FLAG (C); purchased BPS Biosciences (San Diego, Calif.); host or cells: insect cells (Sf9); test: Primary HDAC1 high-throughput screen, microfluidics-based deacetylase assay, single concentration; type: biochemical; conditions: 10 μM; substrate FAM-TSRHKacKL
Tick satisfied if Average activation % during HTS (10 μM) is 30% or greater. Tick not satisfied if Average activation % during HTS (10 μM) is less than 30%.

Examples from the recorded data:
| Molecule | Label Class |
| --- | --- |
| Cc1ccc(C(=O)NC(=S)Nc2ccc(-c3ccc(CO)o3)cc2)cc1 | satisfied |
| COc1ccc(CNc2cc(C)ccc2C)c(OC)c1 | not satisfied |
| CCC(=O)C1(Sc2nc3ccccc3[nH]2)CC(C)(C)OC1=O (stereo not drawn) | not satisfied |
| O=C(NC(=S)Nc1ccc(-c2ccc(CO)o2)cc1)c1cccs1 | satisfied |
| Cc1cccc2c1[nH]c1nc(N/N=C/c3ccc(O)c(O)c3)nnc12 | not satisfied |

Exam item: Item COc1cc(O)c2c(=O)cc(-c3ccc(OC)c(-c4c(O)cc(O)c5c(=O)cc(-c6ccc(O)cc6)oc45)c3)oc2c1 [ginkgetin, reference compound] with Average activation % during HTS (10 μM) of 30% or above?
Marked response: not satisfied
